Each recorded value in this set is attributed to paper PMC4076210.

Tested on: hematological tumor cell lines
Method: 3-day proliferation assay (CellTiter-Glo)
Type: cell-based, human
Run Conditions: Homo sapiens, T-cell, J.RT-T3.5 cell line; ALL; T Cell
Item-by-item account of pIC50
Scale explanation: pIC50 corresponds to minus log10 of a concentration expressed in moles per litre.

- Smiles Repr: "Cn1ncc(Cl)c1-c1cc(C(=O)N[C@H](CN)Cc2cccc(F)c2)sc1Cl"
  pIC50: 7.27

Shift focus to the following entry.
Query: Would you kindly share the measured pIC50 for "Cn1ncc(Cl)c1-c1cc(C(=O)N[C@H](CN)Cc2ccc(F)c(F)c2)oc1Cl" ?
Reply: 7.52

* * *

Method: Compound concentration in blood and tumor (HPLC/MS/MS)
Type: in vivo, mouse
Run Conditions: SCID, mouse, whole blood; 30 mg/kg QDx7 oral, 2 h post last dose
Experimental Readout: concentration at 2 h

Query: Would you kindly share the measured concentration at 2 h for Cn1ncc(Cl)c1-c1cc(C(=O)N[C@H](CN)Cc2ccc(F)c(F)c2)oc1Cl [GSK2141795] ?
Reply: ~3 µM

* * *

Tested on: solid tumor cell lines
Method: 3-day proliferation assay (CellTiter-Glo)
Type: cell-based, human
Run Conditions: Homo sapiens, COLO 704, COLO704, Ovary
Experimental Readout: pIC50
Scale explanation: pIC50 corresponds to minus log10 of a concentration expressed in moles per litre.

- Compound: "Cn1ncc(Cl)c1-c1cc(C(=O)N[C@H](CN)Cc2ccc(F)c(F)c2)oc1Cl [GSK2141795]"
  Tgt: "solid tumor cell lines"
  pIC50: 6.98

Query: Would you kindly share the measured pIC50 for Cn1ncc(Cl)c1-c1cc(C(=O)N[C@H](CN)Cc2cccc(F)c2)sc1Cl [GSK2110183] ?
Reply: 6.47

* * *

Tgt: PKCβ1 (Homo sapiens, UniProt P05771)
Sequence (P05771 whole entry): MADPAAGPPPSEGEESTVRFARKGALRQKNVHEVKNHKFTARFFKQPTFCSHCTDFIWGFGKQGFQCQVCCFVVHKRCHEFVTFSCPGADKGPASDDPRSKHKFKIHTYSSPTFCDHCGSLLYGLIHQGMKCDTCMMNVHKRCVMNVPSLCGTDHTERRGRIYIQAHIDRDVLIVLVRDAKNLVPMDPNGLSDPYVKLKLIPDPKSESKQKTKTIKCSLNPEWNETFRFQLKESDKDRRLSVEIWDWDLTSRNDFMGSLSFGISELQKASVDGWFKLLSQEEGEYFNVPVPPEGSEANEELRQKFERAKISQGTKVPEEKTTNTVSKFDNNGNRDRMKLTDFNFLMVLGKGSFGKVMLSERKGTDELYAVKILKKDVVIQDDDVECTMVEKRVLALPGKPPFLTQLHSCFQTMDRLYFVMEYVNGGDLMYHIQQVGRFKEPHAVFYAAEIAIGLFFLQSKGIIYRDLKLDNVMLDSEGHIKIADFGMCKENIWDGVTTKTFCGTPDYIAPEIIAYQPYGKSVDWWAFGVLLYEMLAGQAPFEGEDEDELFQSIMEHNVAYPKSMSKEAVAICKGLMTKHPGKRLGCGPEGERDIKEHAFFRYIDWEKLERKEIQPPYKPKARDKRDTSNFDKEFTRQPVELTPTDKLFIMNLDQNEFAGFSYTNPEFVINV
Method: Kinase IC50 assay
Format: biochemical
Experimental Readout: IC50 (nM)
Express the result in nM but write the number alone.

Query: Would you kindly share the measured IC50 for "Cn1ncc(Cl)c1-c1cc(C(=O)N[C@H](CN)Cc2cccc(F)c2)sc1Cl" ?
Reply: 430

* * *

System: hematological tumor cell lines
Method: 3-day proliferation assay (CellTiter-Glo)
Format: cell-based, human
Run Conditions: Homo sapiens, K562, K562 cell line; CML; Lymphoblast
Experimental Readout: IC50 (µM)
Express the result in µM but write the number alone.

Query: Would you kindly share the measured IC50 for "Cn1ncc(Cl)c1-c1cc(C(=O)N[C@H](CN)Cc2cccc(F)c2)sc1Cl" ?
Reply: 4.45

Query: Try the molecule "Cn1ncc(Cl)c1-c1cc(C(=O)N[C@H](CN)Cc2ccc(F)c(F)c2)oc1Cl"
Reply: 9.78

* * *

Tgt: ROCK
Method: Kinase IC50 assay
Assay type: biochemical
Item-by-item account of IC50
Express the result in nM but write the number alone.

- Smiles Repr: "Cn1ncc(Cl)c1-c1cc(C(=O)N[C@H](CN)Cc2cccc(F)c2)sc1Cl"
  Unit String: "nM"
  Result Number: 100

Query: Would you kindly share the measured IC50 for "Cn1ncc(Cl)c1-c1cc(C(=O)N[C@H](CN)Cc2ccc(F)c(F)c2)oc1Cl" ?
Reply: 126

* * *

Item-by-item account of pIC50
Test system: solid tumor cell lines
Method: 3-day proliferation assay (CellTiter-Glo)
Format: cell-based, human
Run Conditions: Homo sapiens, SW684, SW684, Sarcoma
Scale explanation: pIC50 corresponds to minus log10 of a concentration expressed in moles per litre.

- Molecule: "Cn1ncc(Cl)c1-c1cc(C(=O)N[C@H](CN)Cc2cccc(F)c2)sc1Cl [GSK2110183]"
  pIC50: 5.98

Shift focus to the following entry.
Query: Would you kindly share the measured pIC50 for Cn1ncc(Cl)c1-c1cc(C(=O)N[C@H](CN)Cc2ccc(F)c(F)c2)oc1Cl [GSK2141795] ?
Reply: 6.47
